system: KM20L2 colon; assay: NCI tumour cell line growth inhibition, 48 h
Quantity name: TGI

| Molecule | Target under test | TGI |
| --- | --- | --- |
| CCCCCCCCCCCCC(SCCNC(=O)CCNC(=O)C(O)C(C)(C)COP(=O)(O)OP(=O)(O)OCC1OC(n2cnc3c(N)ncnc32)C(O)C1OP(=O)(O)O)C(=O)NCC(N)=O (stereo not drawn) | KM20L2 colon | > 100 µM |
| COc1cc(C(C#N)NNC(=O)c2ccccc2O)ccc1O (stereo not drawn) | KM20L2 colon | > 100 µM |
| Nc1ccc2c(c1)[O][Sn]([c]1ccccc1)([c]1ccccc1)[O]C2=O | KM20L2 colon | 31.9 µM |
| CCOC(=O)/C=C(/CN1C(=O)c2ccccc2C1=O)c1ccccc1 | KM20L2 colon | > 100 µM |
| COC(=O)C12C3C4C1C1C2C3C41I (stereo not drawn) | KM20L2 colon | > 100 µM |

Please give the measured TGI for this molecule: c1c[nH]c(Cc2ncc(Cc3cnc[nH]3)[nH]2)n1
> 100 µM

Check CC(NCCS(=O)(=O)O)C(=O)O (stereo not drawn) too.
> 100 µM

Check Cc1ccc(-n2c(C)nc3c2C(=O)c2ccccc2C3=O)cc1 too.
> 100 µM

---

system: LOX IMVI melanoma; assay: NCI tumour cell line growth inhibition, 48 h
As shown below, each of these molecules has a reported TGI value.
Please reply with the bare figure in µM and do not write the unit itself.

Known results for molecules:
| Molecule | TGI (µM) |
| --- | --- |
| COc1ccc2nc3c([N+](=O)[O-])ccc4c3c(c2c1)NCCN4C | 4.71 |
| N#CC1C(N)=NNC1c1ccc(-c2ccc(-c3nc4ccccc4o3)cc2)o1 (configuration not stated) | 64.7 |
| CN(C)Cc1cc(C(=O)/C=C/c2ccc(/C=C/C(=O)c3cc(CN(C)C)c(O)c(CN(C)C)c3)cc2)cc(CN(C)C)c1O | 26.5 |
| O=[N+]([O-])/C=C\c1ccc2c(c1)OCO2 | 4.15 |

Lookup: TGI / LOX IMVI melanoma / Brc1ccc2c(c1)C1=C(CO2)Cc2ccccc2O1
31.1

Check COC(=O)c1ccc2c(c1)c1c(C)c3cnccc3c(C)c1n2C too.
0.194

Check COc1cccc(C2c3cc4c(cc3OC(N3CCOCC3)C2C)OCO4)c1O (configuration not stated) too.
25

Check O=[N+]([O-])C(=C(NCc1ccccc1)NCc1ccccc1)C(Cl)=C(Cl)Cl too.
37.8

Check CC(Nc1cc(Cl)cc(Cl)c1)c1ccncc1 (configuration not stated) too.
24.8

---

system: OVCAR-4 ovarian; assay: NCI tumour cell line growth inhibition, 48 h
As shown below, each of these molecules has a reported GI50 value.

Known results for molecules:
| Molecule | GI50 |
| --- | --- |
| O=C1NC(=O)C(c2ccccc2Cl)=C1Nc1cccc(O)c1 | 7.02 µM |
| OCC1OC(N2C=C(c3nc4ccccc4s3)C3C=CC=CC32)C(O)C1O (stereo not given) | 14.3 µM |
| Cc1cc(O)cc(C)c1/C=C/c1cncc(C(=O)N(C)C)c1 | > 25 µM |

Lookup: GI50 / OVCAR-4 ovarian / N#CC1C(N)=NNC1c1ccc(-c2ccc(-c3nc4ccccc4o3)cc2)o1 (stereo not given)
90.8 µM

Check O=[N+]([O-])/C=C\c1ccc2c(c1)OCO2 too.
11.8 µM

Check CCc1ccc(C2=C(O)C(=O)C(c3ccc(CC)cc3)=C(O)C2=O)cc1 too.
2.18 µM
